- Tested on: Escherichia coli TOP10;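 further: peptides expressed intracellularly from a pBAD plasmid library in pooled LB shake-flask culture, induced with 0.3% L-arabinose, DNA abundance read by NGS, three biological replicates, DESeq2 with apeglm shrinkage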
- ASSAY SUMMARY: shrunken log2 fold change of peptide-encoding DNA abundance (4.5 h post-induction vs induction); higher = less antimicrobial activity (less host growth inhibition)
- MEASUREMENT SETUP: time post-induction: 4.5 h; library: site-saturation at positions 5, 18, 19, 20
MEASUREMENT TYPE: shrunken log2 fold change
Note: the reply should be a number with no unit written.

Ask: Need shrunken log2 fold change of RRIRGRPPRLPRPRPRPMHGPRP , thanks.
Result: 0.36

Ask: Need shrunken log2 fold change of RRIRLRPPRLPRPRPRPPTFPRP , thanks.
Result: 0.00353

Ask: Need shrunken log2 fold change of RRIRARPPRLPRPRPRPYSFPRP , thanks.
Result: -0.0794

Ask: Need shrunken log2 fold change of RRIRQRPPRLPRPRPRPMIRPRP , thanks.
Result: -0.0156

Ask: Need shrunken log2 fold change of RRIRYRPPRLPRPRPRPTIGPRP , thanks.
Result: -0.31

Ask: Need shrunken log2 fold change of RRIRTRPPRLPRPRPRPQFSPRP , thanks.
Result: -0.823

Ask: Need shrunken log2 fold change of RRIRHRPPRLPRPRPRPMFKPRP , thanks.
Result: -0.625

Ask: Need shrunken log2 fold change of RRIRARPPRLPRPRPRPFSYPRP , thanks.
Result: -0.0901

Ask: Need shrunken log2 fold change of RRIRARPPRLPRPRPRPWVTPRP , thanks.
Result: -0.127

Ask: Need shrunken log2 fold change of RRIRERPPRLPRPRPRPPQLPRP , thanks.
Result: 0.194

Ask: Need shrunken log2 fold change of RRIRQRPPRLPRPRPRPCIRPRP , thanks.
Result: -0.0303

Ask: Need shrunken log2 fold change of RRIRARPPRLPRPRPRPKALPRP , thanks.
Result: 0.294

Ask: Need shrunken log2 fold change of RRIRHRPPRLPRPRPRPHGLPRP , thanks.
Result: 0.15

Ask: Need shrunken log2 fold change of RRIRSRPPRLPRPRPRPMMCPRP , thanks.
Result: 0.0105

Ask: Need shrunken log2 fold change of RRIRMRPPRLPRPRPRPTRPPRP , thanks.
Result: 1.32
